IC50 values, listed per item
# assayed system: human GluN1/GluN2B NMDA receptors (Homo sapiens, UniProt Q05586+Q13224)
# Sequence (Q13224 27-1484, other chains not shown): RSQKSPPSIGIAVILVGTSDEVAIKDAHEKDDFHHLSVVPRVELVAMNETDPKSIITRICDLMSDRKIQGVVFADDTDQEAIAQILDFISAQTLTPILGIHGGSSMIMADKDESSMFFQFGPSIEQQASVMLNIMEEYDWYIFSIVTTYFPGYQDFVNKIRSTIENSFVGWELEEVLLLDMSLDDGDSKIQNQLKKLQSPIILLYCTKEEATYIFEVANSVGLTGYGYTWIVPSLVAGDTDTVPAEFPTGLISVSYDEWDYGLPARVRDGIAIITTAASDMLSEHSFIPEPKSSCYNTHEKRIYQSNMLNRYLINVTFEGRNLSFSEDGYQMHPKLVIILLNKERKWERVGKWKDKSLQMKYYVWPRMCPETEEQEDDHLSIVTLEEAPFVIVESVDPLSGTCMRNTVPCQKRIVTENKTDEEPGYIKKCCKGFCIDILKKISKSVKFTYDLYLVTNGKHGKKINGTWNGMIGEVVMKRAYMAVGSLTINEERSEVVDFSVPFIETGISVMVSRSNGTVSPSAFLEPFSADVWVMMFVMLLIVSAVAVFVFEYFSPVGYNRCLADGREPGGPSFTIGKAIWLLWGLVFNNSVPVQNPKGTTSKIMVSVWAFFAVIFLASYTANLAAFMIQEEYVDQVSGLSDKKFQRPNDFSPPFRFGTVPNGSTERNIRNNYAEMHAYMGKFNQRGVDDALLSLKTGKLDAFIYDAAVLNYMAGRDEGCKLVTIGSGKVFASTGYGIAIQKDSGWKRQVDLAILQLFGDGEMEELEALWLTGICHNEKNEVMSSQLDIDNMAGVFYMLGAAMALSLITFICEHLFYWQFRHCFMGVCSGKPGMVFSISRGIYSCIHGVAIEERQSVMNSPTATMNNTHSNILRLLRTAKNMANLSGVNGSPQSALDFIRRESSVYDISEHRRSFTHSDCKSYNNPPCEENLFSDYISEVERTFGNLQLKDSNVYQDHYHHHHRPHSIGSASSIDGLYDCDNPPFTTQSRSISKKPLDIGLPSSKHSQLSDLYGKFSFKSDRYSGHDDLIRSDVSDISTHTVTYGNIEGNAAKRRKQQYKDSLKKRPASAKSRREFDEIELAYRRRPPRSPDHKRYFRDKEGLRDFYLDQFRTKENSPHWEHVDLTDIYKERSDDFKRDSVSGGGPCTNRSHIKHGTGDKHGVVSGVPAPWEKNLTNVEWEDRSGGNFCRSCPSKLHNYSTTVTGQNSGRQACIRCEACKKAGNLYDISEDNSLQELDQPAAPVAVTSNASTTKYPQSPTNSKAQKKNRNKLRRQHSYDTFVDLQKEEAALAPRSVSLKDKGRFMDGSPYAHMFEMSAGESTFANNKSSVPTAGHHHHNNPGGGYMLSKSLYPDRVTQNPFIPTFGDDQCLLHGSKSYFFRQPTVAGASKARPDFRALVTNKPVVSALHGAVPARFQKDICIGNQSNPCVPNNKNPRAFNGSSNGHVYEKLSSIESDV
# assay explanation: Cell-based calcium flux (FLIPR) assay on cloned human NR1/NR2B ion channels expressed in mammalian cells
# condition context: standard assay; human GluN1/GluN2B, calcium flux (FLIPR), glutamate ~EC80
Number only, in µM; omit the unit.

Record excerpt, results attached:
CC(=O)c1cnc(OCc2cn(-c3cccc(C)c3)nn2)nc1	0.224
FC(F)Oc1ccc(-n2cc(COc3ncc(Cl)cn3)nn2)cc1	0.2
Cc1cnc(OCc2cn(-c3cccc(C)c3)nn2)nc1	0.014
Cc1cccc(-n2cc(COc3ncc(Cl)c(C)n3)nn2)c1	0.007
CC(F)(F)c1cc(-n2cc(COc3ncc(F)cn3)nn2)ccc1F	0.032
FC(F)c1ccnc(OCc2cn(-c3ccc4c(c3)CCC4)nn2)n1	0.397
Cc1cnc(OCc2cn(-c3cncc(C)c3)nn2)nc1	0.929
Cc1cnc(N[C@H](C)c2cn(-c3ccc(Cl)c(OC(F)F)c3)nn2)nc1	0.121

From here, focus on the item given below.
In plain terms, Cn1ccc(NCc2cn(-c3ccc(F)c(OC(F)F)c3)nn2)n1 has a documented IC50 of 0.374

====

# assayed system: human GluN1/GluN2B NMDA receptors (Homo sapiens, UniProt Q05586+Q13224)
# assay explanation: Cell-based calcium flux (FLIPR) assay on cloned human NR1/NR2B ion channels expressed in mammalian cells
# condition context: standard assay; glutamate at ~EC80; FLIPR calcium flux
IC50 values, listed per item

Record excerpt, results attached:
CC(F)(F)c1cc(-n2cc(COc3ccccn3)nn2)ccc1F	1.64 µM
Fc1c(-n2cc(COc3ncc(Cl)cn3)nn2)cccc1C(F)(F)F	0.07 µM
CC(F)(F)c1cc(-n2cc(COc3ncc(C(F)(F)F)cn3)nn2)ccc1Cl	0.016 µM
Cc1c(F)cccc1-n1cc(COc2ncc(C(C)(C)O)cn2)nn1	7.01 µM
Fc1ccc(-n2cc(COc3nccc(N4CC(F)C4)n3)nn2)cc1OC(F)F	0.025 µM

IC50 on human GluN1/GluN2B NMDA receptors (Homo sapiens, UniProt Q05586+Q13224) for CCOCc1ccnc(OCc2cn(-c3ccc(F)c(OC(F)F)c3)nn2)n1 is 0.043 µM

IC50 on human GluN1/GluN2B NMDA receptors (Homo sapiens, UniProt Q05586+Q13224) for Cc1c(F)ccc(-n2cc(COc3ncc(C(F)(F)F)cn3)nn2)c1F is 0.2 µM

IC50 on human GluN1/GluN2B NMDA receptors (Homo sapiens, UniProt Q05586+Q13224) for Cc1ccnc(OCc2cn(-c3ccc(Cl)c(C(C)(F)F)c3)nn2)n1 is 0.017 µM

IC50 on human GluN1/GluN2B NMDA receptors (Homo sapiens, UniProt Q05586+Q13224) for CC(F)(F)c1cc(-n2cc(COc3ncc(C#N)cn3)nn2)ccc1F is 0.067 µM

IC50 on human GluN1/GluN2B NMDA receptors (Homo sapiens, UniProt Q05586+Q13224) for Cc1cccc(-n2cc(COc3ncc(Cl)cn3)nn2)c1F is 1.25 µM

IC50 on human GluN1/GluN2B NMDA receptors (Homo sapiens, UniProt Q05586+Q13224) for Cc1cnc(OCc2cn(-c3cc(C)ccc3F)nn2)nc1 is 1 µM

IC50 on human GluN1/GluN2B NMDA receptors (Homo sapiens, UniProt Q05586+Q13224) for Cc1nc(OCc2cn(-c3cccc(Cl)c3F)nn2)ncc1F is 1.44 µM

IC50 on human GluN1/GluN2B NMDA receptors (Homo sapiens, UniProt Q05586+Q13224) for CC(C)(O)c1cnc(OCc2cn(-c3ccc(F)c(C(F)F)c3)nn2)nc1 is 0.017 µM

IC50 on human GluN1/GluN2B NMDA receptors (Homo sapiens, UniProt Q05586+Q13224) for COCc1ccnc(OCc2cn(-c3ccc(Cl)c(C(F)F)c3)nn2)n1 is 0.038 µM

IC50 on human GluN1/GluN2B NMDA receptors (Homo sapiens, UniProt Q05586+Q13224) for Fc1c(Cl)cccc1-n1cc(COc2ncccn2)nn1 is > 10 µM

IC50 on human GluN1/GluN2B NMDA receptors (Homo sapiens, UniProt Q05586+Q13224) for Fc1cnc(OCc2cn(-c3ccc(F)c(F)c3)nn2)nc1 is 1.45 µM

IC50 on human GluN1/GluN2B NMDA receptors (Homo sapiens, UniProt Q05586+Q13224) for Cc1cccc(-n2cc(COc3ncc(Cl)c(C)n3)nn2)n1 is > 2.99 µM

IC50 on human GluN1/GluN2B NMDA receptors (Homo sapiens, UniProt Q05586+Q13224) for CC(C)(O)c1ccc(OCc2cn(-c3ccc(F)c(C(F)(F)F)c3)nn2)nc1 is 1.11 µM

IC50 on human GluN1/GluN2B NMDA receptors (Homo sapiens, UniProt Q05586+Q13224) for CCc1cnc(OCc2cn(-c3ccc(F)c(Cl)c3)nn2)nc1 is 0.003 µM

IC50 on human GluN1/GluN2B NMDA receptors (Homo sapiens, UniProt Q05586+Q13224) for Fc1ccc(-n2cc(COc3nccc(N4CC(F)(F)C4)n3)nn2)cc1OC(F)F is 0.041 µM

IC50 on human GluN1/GluN2B NMDA receptors (Homo sapiens, UniProt Q05586+Q13224) for Fc1ccc(-n2cc(COc3ncc(Br)cn3)nn2)cc1C(F)(F)F is 0.013 µM

====

# assayed system: human GluN1/GluN2B NMDA receptors (Homo sapiens, UniProt Q05586+Q13224)
# assay explanation: Cell-based calcium flux (FLIPR) assay on cloned human NR1/NR2B ion channels expressed in mammalian cells
# condition context: standard assay; glutamate at ~EC80; FLIPR calcium flux
measured endpoint: IC50 (µM)
Number only, in µM; omit the unit.

Record excerpt, results attached:
Cc1cnc(OCc2cn(-c3ccc(F)c(OC(F)F)c3)nn2)nc1N(C)C [Example 516]	0.017
Fc1ccc(-n2cc(COc3ncc(N4CC(F)C4)cn3)nn2)cc1C(F)F [Example 416]	0.01
CCc1cnc(OCc2cn(-c3ccc(F)c(F)c3)nn2)nc1 [Example 602]	0.023
FC(F)Oc1cc(-n2cc(COc3ncc(N4CC(F)(F)C4)cn3)nn2)ccc1Cl [Example 393]	0.037
FC(F)(F)c1cnc(OCc2cn(-c3ccc(C(F)(F)F)s3)nn2)nc1 [Example 670]	0.063

IC50 on human GluN1/GluN2B NMDA receptors (Homo sapiens, UniProt Q05586+Q13224) for Cc1nc(OCc2cn(-c3ccc(F)c(C(F)(F)F)c3)nn2)ncc1F [Example 445] is 0.006

IC50 on human GluN1/GluN2B NMDA receptors (Homo sapiens, UniProt Q05586+Q13224) for Cc1cnc(OCc2cn(-c3ccc(F)c(C(C)(F)F)c3)nn2)nc1C [Example 573] is 0.019

IC50 on human GluN1/GluN2B NMDA receptors (Homo sapiens, UniProt Q05586+Q13224) for CC(F)(F)c1cc(-n2cc(COc3ccc(C(F)(F)F)cn3)nn2)ccc1F [Example 559] is 0.812

====

IC50 values, listed per item
# assayed system: human GluN1/GluN2B NMDA receptors (Homo sapiens, UniProt Q05586+Q13224)
# assay explanation: Cell-based calcium flux (FLIPR) assay on cloned human NR1/NR2B ion channels expressed in mammalian cells
# condition context: standard assay; human GluN1/GluN2B, calcium flux (FLIPR), glutamate ~EC80
Number only, in µM; omit the unit.

COc1cnc(OCc2cn(-c3cc(C)cc(C)c3)nn2)nc1	0.032
CC(F)(F)c1cccc(-n2cc(COc3ncc(Cl)cn3)nn2)c1	0.003
CCc1cnc(NCc2cn(-c3ccc(Cl)c(C(F)F)c3)nn2)nc1	0.044
CC(C)c1cnc(NCc2cn(-c3ccc(F)c(C(C)(F)F)c3)nn2)nc1	0.581

From here, focus on the item given below.
In plain terms, Cc1cnc(OCc2cn(-c3ccc(F)c(OC(F)F)c3)nn2)nc1 has a documented IC50 of 0.003

====

# assayed system: human GluN1/GluN2B NMDA receptors (Homo sapiens, UniProt Q05586+Q13224)
# assay explanation: Cell-based calcium flux (FLIPR) assay on cloned human NR1/NR2B ion channels expressed in mammalian cells
# condition context: standard assay; glutamate at ~EC80; FLIPR calcium flux
IC50 values, listed per item
Number only, in µM; omit the unit.

Cc1cnc(OCc2cn(-c3ccc(Cl)c(C(C)(F)F)c3)nn2)nc1C	0.006
CNc1nc(OCc2cn(-c3ccc(F)c(C(C)(F)F)c3)nn2)ncc1F	0.14
CC(C)(O)c1cnc(OCc2cn(-c3ccc(Cl)c(C(C)(F)F)c3)nn2)nc1	0.081

In plain terms, OCc1cnc(OCc2cn(-c3ccc(Cl)c(C(F)F)c3)nn2)nc1 has a documented IC50 of 0.02

In plain terms, Cc1cc(OCc2cn(-c3ccc(F)c(C)c3)nn2)ncn1 has a documented IC50 of 3.03
